- systemUnderTest: CaNbp2
- protocol: SPOT peptide array binding signal intensity (averaged, normalized) (arbitrary units (background-subtracted, floor 0; scale differs between SH3 domains)); higher = stronger binding of the SH3 domain to the peptide
measuredEndpoint: SPOT peptide array binding signal intensity

binder: APPPPPRRATPEKKP
result: 53
--
binder: VQQDSLPKLPFRSWG
result: 14.5
--
binder: DAPASKPSVPPRNYF
result: ≤ 0
--
binder: DTIDNVKSKIQDKEG
result: ≤ 0
--
binder: GRLRPKRIAPWHLIQ
result: 1940
--
binder: NRARYLPQNPDIIAG
result: 59
--
binder: KKIRLIFTYPSTVGR
result: 966
